test system: P388 leukemia ip, CD2F1 mice, survival T/C; assay: NCI In Vivo Anticancer Drug Screen. Data for tumor model P388 Leukemia (intraperitoneal) in CD2F1 (CDF1) mice; conditions: endpoint: median survival time; dose: 50.0 mg/kg/injection; schedule: Q01DX009 (ip); vehicle: water; higher = longer survival
Toxic doses and inconclusive results are not listed.
QUANTITY KIND: T/C

Below, each entry is followed by its recorded T/C result.
>>> print(df.to_string())
                   molecule  quantity_kind      assay_result
0  C[n+]1cc2ccccc2c2ccccc21            T/C  113 % of control
1          CCC[n+]1noc(N)n1            T/C  106 % of control
2            O=NNc1cccnc1Cl            T/C  105 % of control

**Query** Entry CN(C)C(CC(=O)O)C(=O)O (centres undefined) has what T/C?
**Result** 108 % of control

* * *

test system: P388 leukemia ip, CD2F1 mice, survival T/C; assay: NCI In Vivo Anticancer Drug Screen. Data for tumor model P388 Leukemia (intraperitoneal) in CD2F1 (CDF1) mice; conditions: endpoint: median survival time; dose: 25.0 mg/kg/injection; schedule: Q01DX005 (ip); vehicle: saline; higher = longer survival
Toxic doses and inconclusive results are not listed.
QUANTITY KIND: T/C

Below, each entry is followed by its recorded T/C result.
In [3]: df
Out[3]:
                                   compound      assay_result
0      COc1cc(NCCCCCNC(C)C)c2ncc(C)c(C)c2c1  100 % of control
1  CCCCCC[CH2][Sn]([Cl])([CH2]C)[O][Sn]([Cl])([CH2]C)[CH2]CCCCCC (stereo not given)   86 % of control
2                             CCP(=O)(CC)CC   98 % of control
3                   CC1=CC(C)(C)N(C)C(N)=N1   91 % of control

Continue with the compound presented below.
**Query** Entry CN1CCC(CCl)C(c2ccccc2)C1 (stereo not given) has what T/C?
**Result** 100 % of control

* * *

tested on: P388 leukemia ip, CD2F1 mice, survival T/C; assay: NCI In Vivo Anticancer Drug Screen. Data for tumor model P388 Leukemia (intraperitoneal) in CD2F1 (CDF1) mice; details: endpoint: median survival time; dose: 200.0 mg/kg/injection; schedule: Q01DX009 (ip); vehicle: saline with Tween-80; higher = longer survival
Inconclusive results and toxic doses are left out.
QUANTITY KIND: T/C

>>> print(df.to_string())
                         molecule                             target_system      assay_result
0           CC(=O)Nc1ccccc1C(C)=O  P388 leukemia ip, CD2F1 mice, survival T/C  100 % of control
1                   CCCCNC(=O)CCC  P388 leukemia ip, CD2F1 mice, survival T/C   95 % of control
2    CC(C)n1c(=S)[nH]c2ccccc2c1=O  P388 leukemia ip, CD2F1 mice, survival T/C   90 % of control
3      O=C(CCl)Nc1c(Br)cc(F)cc1Br  P388 leukemia ip, CD2F1 mice, survival T/C  104 % of control
4  Cc1cc2cc3c(C)cc(=O)oc3c(C)c2o1  P388 leukemia ip, CD2F1 mice, survival T/C  112 % of control

**Query** Entry COC(=O)CCCCCC(O)C1CCC2OC(=O)CC21C (configuration not stated) has what T/C?
**Result** 100 % of control

**Query** Entry CC(=O)Sc1ccccc1C(=O)NC1CCCCC1 has what T/C?
**Result** 114 % of control

* * *

tested on: P388 leukemia ip, CD2F1 mice, survival T/C; assay: NCI In Vivo Anticancer Drug Screen. Data for tumor model P388 Leukemia (intraperitoneal) in CD2F1 (CDF1) mice; settings: endpoint: median survival time; dose: 1.56 mg/kg/injection; schedule: Q01DX009 (ip); vehicle: water; higher = longer survival
Toxic doses and inconclusive results are not listed.
QUANTITY KIND: T/C

Below, each entry is followed by its recorded T/C result.
MOLECULE	T/C
CC1OC(OCc2ccc3c(c2)C(=O)c2ccccc2C3=O)CC(N)C1O (centres undefined)	105 % of control
COc1cccc2c1C(=O)c1c(O)c3c(c(O)c1C2=O)C[C@@](O)(C(C)=O)C[C@@H]3OC1CC(N(Cc2ccccc2)Cc2ccccc2)C(O)C(C)O1 (some centres undefined)	114 % of control
CC1=C2C(=CC(C)(CO)C2O)C(O)C(C)(O)C12CC2 (centres undefined)	114 % of control

**Query** Entry COc1ccc(C2=NOP(c3ccccc3)(c3ccccc3)(c3ccccc3)C2)cc1 has what T/C?
**Result** 102 % of control

* * *

test system: P388 leukemia ip, CD2F1 mice, survival T/C; assay: NCI In Vivo Anticancer Drug Screen. Data for tumor model P388 Leukemia (intraperitoneal) in CD2F1 (CDF1) mice; settings: endpoint: median survival time; dose: 400.0 mg/kg/injection; schedule: Q04DX002 (ip); vehicle: saline; higher = longer survival
Toxic doses and inconclusive results are not listed.
Listed below: T/C values for each entry.

Below, each entry is followed by its recorded T/C result.
>>> print(df.to_string())
                                   molecule      assay_result
0  C[C@@H](N)C(=O)NC(CO)CC(N)C=O (some centres undefined)  122 % of control
1  O=c1[nH]c(=O)c2nc(-c3cccc([N+](=O)[O-])c3)cnc2[nH]1  106 % of control
2  Cc1ccc(-c2cnc3[nH]c(=O)[nH]c(=O)c3n2)cc1   91 % of control

Continue with the molecule presented below.
**Query** Entry CN(C(=O)C(=S)c1ccccc1)c1ccccc1 has what T/C?
**Result** 117 % of control

* * *

tested on: P388 leukemia ip, CD2F1 mice, survival T/C; test: NCI In Vivo Anticancer Drug Screen. Data for tumor model P388 Leukemia (intraperitoneal) in CD2F1 (CDF1) mice; settings: endpoint: median survival time; dose: 3.12 mg/kg/injection; schedule: Q01DX009 (ip); vehicle: saline with Tween-80; higher = longer survival
Inconclusive results and toxic doses are left out.
QUANTITY KIND: T/C

Below, each entry is followed by its recorded T/C result.
In [3]: df
Out[3]:
                                   molecule      assay_result
0  COc1ccc2c3c1OC1C(O)C=CC4C(C2)N(C)CCC341 (centres undefined)  102 % of control
1                             Cc1ccc(C#N)s1  104 % of control
2                          COP(=O)(O)OC.[U]  118 % of control

Continue with the molecule presented below.
**Query** Entry CSc1ncc2c(=O)c3c(ccc4ccccc43)oc2n1 has what T/C?
**Result** 93 % of control

* * *

Listed below: T/C values for each entry.
test system: P388 leukemia ip, CD2F1 mice, survival T/C; test: NCI In Vivo Anticancer Drug Screen. Data for tumor model P388 Leukemia (intraperitoneal) in CD2F1 (CDF1) mice; conditions: endpoint: median survival time; dose: 200.0 mg/kg/injection; schedule: Q01DX005 (ip); vehicle: Klucel (hydroxypropylcellulose) (HPC); higher = longer survival
Inconclusive results and toxic doses are left out.

**Query** Please tell me: T/C of Cc1[nH]n(-c2cc(S(=O)(=O)O)ccc2Cl)c(=O)c1N=Nc1c(NC(=O)c2ccc(N)cc2)ccc2cc(S(=O)(=O)O)ccc12 , system P388 leukemia ip, CD2F1 mice, survival T/C?
**Result** 115 % of control

* * *

test system: P388 leukemia ip, CD2F1 mice, survival T/C; assay: NCI In Vivo Anticancer Drug Screen. Data for tumor model P388 Leukemia (intraperitoneal) in CD2F1 (CDF1) mice; settings: endpoint: median survival time; dose: 25.0 mg/kg/injection; schedule: Q01DX009 (ip); vehicle: Klucel (hydroxypropylcellulose) (HPC); higher = longer survival
Inconclusive results and toxic doses are left out.
Listed below: T/C values for each entry.

                                     smiles                             target_system      assay_result
0  CCCCCCCCCCCCOC(=O)c1ccc(OP(=O)(O)OCc2ccccc2)cc1  P388 leukemia ip, CD2F1 mice, survival T/C  121 % of control
1     NC(=O)c1cc([N+](=O)[O-])cnc1Sc1ncccn1  P388 leukemia ip, CD2F1 mice, survival T/C  118 % of control
2        CCN(c1ccccc1)S(=O)(=O)c1cc(N)ccc1C  P388 leukemia ip, CD2F1 mice, survival T/C  101 % of control
3  O=c1[nH]/c(=C/c2ccccc2)c(=O)[nH]/c1=C/C=C/c1ccccc1  P388 leukemia ip, CD2F1 mice, survival T/C  107 % of control
4                 C[n+]1ccc(I)c2ccc(Cl)cc21  P388 leukemia ip, CD2F1 mice, survival T/C  104 % of control

**Query** Entry COc1ccc2nc(C)cc(N/N=C/c3cccnc3)c2c1 has what T/C?
**Result** 113 % of control
